Molecular target: p38MAPKγ (MAPK12) (Homo sapiens)
Construct: purchased Life Technologies
Sequence (P53778 whole entry): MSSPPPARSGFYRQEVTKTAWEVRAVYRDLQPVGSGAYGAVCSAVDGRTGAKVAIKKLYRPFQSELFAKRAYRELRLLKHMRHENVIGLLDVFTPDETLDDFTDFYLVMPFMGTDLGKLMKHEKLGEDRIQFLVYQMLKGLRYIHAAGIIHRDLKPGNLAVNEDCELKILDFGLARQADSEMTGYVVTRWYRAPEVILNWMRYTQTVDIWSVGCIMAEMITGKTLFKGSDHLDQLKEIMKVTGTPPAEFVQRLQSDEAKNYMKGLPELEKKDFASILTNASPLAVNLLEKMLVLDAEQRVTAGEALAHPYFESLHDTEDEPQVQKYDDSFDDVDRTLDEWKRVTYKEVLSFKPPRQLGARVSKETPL
Assay: p38 MAPKγ enzyme inhibition (Z-LYTE FRET)
Assay type: biochemical
Settings: Table 2B, unit inferred; read-out: p38 MAPKγ (Enzyme Profile)
pIC50: −log10 of the molar value.
Measured pIC50 of individual entries

Here is how some compounds turned out for pIC50.
[
  {
    "compound": "Cc1ccc(-n2nc(C(C)(C)C)cc2NC(=O)Nc2ccc(OCc3ccnc(Nc4cnc5c(n4)CCCC5)c3)c3ccccc23)cc1 [Example 138]",
    "targetUnderTest": "p38MAPKγ (MAPK12) (Homo sapiens)",
    "pIC50": "< 4.81"
  },
  {
    "compound": "Cc1ccc(-n2nc(C(C)(C)C)cc2NC(=O)Nc2ccc(OCc3ccnc(Nc4cnc(C(=O)NCCOC(C)(C)C)cn4)c3)c3ccccc23)cc1 [Example 125]",
    "targetUnderTest": "p38MAPKγ (MAPK12) (Homo sapiens)",
    "pIC50": "< 4.87"
  },
  {
    "compound": "Cc1ccc(-n2nc(C(C)(C)C)cc2NC(=O)Nc2ccc(OCc3ccnc(Nc4cnc(C(=O)N5CC[C@H](F)C5)cn4)c3)c3ccccc23)cc1 [Example 242]",
    "targetUnderTest": "p38MAPKγ (MAPK12) (Homo sapiens)",
    "pIC50": "< 4.85"
  }
]

Please state recorded pIC50 (tested on p38MAPKγ (MAPK12) (Homo sapiens)) of Cc1ccc(-n2nc(C(C)(C)C)cc2NC(=O)Nc2ccc(OCc3ccnc(Nc4cnc(C(=O)NC(C)(C)CN5CCOCC5)cn4)c3)c3ccccc23)cc1 [Example 287]
< 4.89

====

Target: p38 MAPKα isoform (MAPK14) (Homo sapiens)
Construct: purchased Life Technologies
Test: p38 MAPKα enzyme inhibition (Z-LYTE FRET)
Format: biochemical
Details: Table 2B, unit inferred; read-out: p38 MAPKα (Enzyme Profile)
pIC50: −log10 of the molar value.
measurementLabel: pIC50

[
  {
    "compound": "Cc1ccc(-n2nc(C(C)(C)C)cc2NC(=O)Nc2ccc(OCc3ccnc(Nc4cnc(C(=O)NCCC5CCN(C)CC5)cn4)c3)c3ccccc23)cc1 [Example 266]",
    "measurementLabel": "pIC50",
    "reportedResult": "> 9.41"
  },
  {
    "compound": "CN(C)Cc1cccc(-n2nc(C(C)(C)C)cc2NC(=O)Nc2ccc(OCc3ccnc(Nc4cnccn4)c3)c3ccccc23)c1 [Example 261]",
    "measurementLabel": "pIC50",
    "reportedResult": "> 9.33"
  }
]

// next entry
Please state recorded pIC50 (tested on p38 MAPKα isoform (MAPK14) (Homo sapiens)) of Cc1ccc(-n2nc(C(C)(C)C)cc2NC(=O)Nc2ccc(OCc3ccnc(Nc4cnc(C(=O)NCCN(C)C)cn4)c3)c3ccccc23)cc1 [Example 268]
> 9.38

====

Target: p38 MAPKα isoform (MAPK14) (Homo sapiens, UniProt Q16539)
Construct: purchased Life Technologies
Sequence (Q16539 whole entry, canonical isoform): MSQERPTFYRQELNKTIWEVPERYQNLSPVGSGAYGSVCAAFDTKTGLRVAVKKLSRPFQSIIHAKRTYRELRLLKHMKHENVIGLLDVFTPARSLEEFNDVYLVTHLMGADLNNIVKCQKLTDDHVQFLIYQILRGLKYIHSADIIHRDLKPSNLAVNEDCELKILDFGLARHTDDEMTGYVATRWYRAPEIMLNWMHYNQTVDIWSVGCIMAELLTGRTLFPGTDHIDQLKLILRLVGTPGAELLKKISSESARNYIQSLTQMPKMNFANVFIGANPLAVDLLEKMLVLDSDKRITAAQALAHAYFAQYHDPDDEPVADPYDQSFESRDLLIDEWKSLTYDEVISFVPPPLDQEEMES
Test: p38 MAPKα enzyme inhibition (Z-LYTE FRET)
Assay type: biochemical
Conditions: Table 2B, unit inferred; read-out: p38 MAPKα (Enzyme Profile)
measurementLabel: IC50

Here is how some compounds turned out for IC50.
[
  {
    "structure": "Cc1ccc(-n2nc(C(C)(C)C)cc2NC(=O)Nc2ccc(OCc3ccnc(Nc4cnc(C(=O)NC5CCN(C)CC5)cn4)c3)c3ccccc23)cc1",
    "IC50": "< 0.41 nM"
  },
  {
    "structure": "COC1CN(C(=O)c2cnc(Nc3cc(COc4ccc(NC(=O)Nc5cc(C(C)(C)C)nn5-c5cccc(C)c5)c5ccccc45)ccn3)cn2)C1",
    "IC50": "54 nM"
  },
  {
    "structure": "COCCCNC(=O)c1cnc(Nc2cc(COc3ccc(NC(=O)Nc4cc(C(C)(C)C)nn4-c4ccc(C)cc4)c4ccccc34)ccn2)cn1",
    "IC50": "25 nM"
  },
  {
    "structure": "Cc1ccc(-n2nc(C(C)(C)C)cc2NC(=O)Nc2ccc(OCc3ccnc(Nc4cnc(C(=O)N5CC[C@H](O)C5)cn4)c3)c3ccccc23)cc1",
    "IC50": "47 nM"
  },
  {
    "structure": "Cc1ccc(-n2nc(C(C)(C)C)cc2NC(=O)Nc2ccc(OCc3ccnc(Nc4cnc(C(=O)N5CCC[C@@H](O)C5)cn4)c3)c3ccccc23)cc1",
    "IC50": "9.4 nM"
  }
]

Entry COc1cc(-n2nc(C(C)(C)C)cc2NC(=O)Nc2ccc(OCc3ccnc(Nc4cnccn4)c3)c3ccccc23)ccn1 : reported IC50 = ?
23 nM

Cc1ccc(-n2nc(C(C)(C)C)cc2NC(=O)Nc2ccc(OCc3ccnc(Nc4cnc(CO)cn4)c3)c3ccccc23)cc1C ?
4.1 nM

COCc1cccc(-n2nc(C(C)(C)C)cc2NC(=O)Nc2ccc(OCc3ccnc(Nc4cnccn4)c3)c3ccccc23)c1 ?
6.2 nM

Cc1ccc(-n2nc(C(C)(C)C)cc2NC(=O)Nc2ccc(OCc3ccnc(Nc4cnc(C(=O)NCCN5CCN(C)CC5)cn4)c3)c3ccccc23)cc1 ?
< 0.39 nM

Cc1ccc(-n2nc(C(C)(C)C)cc2NC(=O)Nc2ccc(OCc3ccnc(Nc4cnc(C(=O)N5CCCCC5)cn4)c3)c3ccccc23)cc1 ?
6 nM
